MEASURED ON: serotonin 5-HT1A receptor (Rattus norvegicus, UniProt P19327)
Construct: the hippocampuses extracted from male Wistar rats were homogenized; from tissue; host or cells: rat hippocampus membrane homogenate
Sequence (P19327 whole entry): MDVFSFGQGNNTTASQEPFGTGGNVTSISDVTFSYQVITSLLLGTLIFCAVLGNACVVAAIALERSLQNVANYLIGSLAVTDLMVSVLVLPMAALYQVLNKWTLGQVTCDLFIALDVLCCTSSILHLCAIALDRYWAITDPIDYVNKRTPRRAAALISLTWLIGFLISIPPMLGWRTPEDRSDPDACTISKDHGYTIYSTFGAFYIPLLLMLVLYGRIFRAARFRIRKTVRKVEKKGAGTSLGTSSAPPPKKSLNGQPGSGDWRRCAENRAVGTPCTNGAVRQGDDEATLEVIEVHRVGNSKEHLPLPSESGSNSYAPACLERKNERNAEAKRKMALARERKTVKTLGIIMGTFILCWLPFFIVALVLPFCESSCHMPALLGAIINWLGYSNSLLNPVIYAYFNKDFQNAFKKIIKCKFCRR
EXPERIMENTAL DETAILS: Affinity with serotonin receptor, [3H]8-OH-DPAT binding
Parameters: species or system male Wistar rats
TEST CONDITIONS: 0.4 nM [3H]8-OH-DPAT, rat hippocampus preparation, 25° C., 30 minutes; read-out: IC50 (5-HT1A)
Can you tell me IC50 for the items I'm about to list?
One number for each entry, in pM.

// worked examples, IC50 included
                               entry_smiles  outcome_measure  reported
0  Cc1ccc2c(c1)C(=O)N(CCCCN1CCN(c3ncccn3)CC1)C(Cl)=CO2             IC50       880
1  O=C1c2ccccc2OC=C(Cl)N1CCCCN1CCN(c2ccccn2)CC1             IC50       770

Below: the item to evaluate.
Sure, the documented IC50 for CC1=COc2ccc(F)cc2C(=O)N1CCCCN1CCN(c2cccc(Cl)n2)CC1 is 1700

* * *

MEASURED ON: serotonin 5-HT1A receptor (Rattus norvegicus)
Construct: the hippocampuses extracted from male Wistar rats were homogenized; from tissue; host or cells: rat hippocampus membrane homogenate
EXPERIMENTAL DETAILS: Affinity with serotonin receptor, [3H]8-OH-DPAT binding
Design: species or system male Wistar rats
TEST CONDITIONS: ratio of IC50 (D2) to IC50 (5-HT1A)
OUTCOME MEASURE: D2/5-HT1A
Answers are plain numbers.

Consider the reported D2/5-HT1A for these compounds:
>>> print(df.to_string())
                               entry_smiles  reported
0  O=C1c2ccc(Cl)cc2OC=C(Cl)N1CCCCN1CCN(c2ccccn2)CC1       194
1  O=C1c2ccccc2OC=C(Cl)N1CCCCN1CC=C(c2ccccn2)CC1        84

Look up D2/5-HT1A for the entries below, preserving their order.
1. O=C1c2ccc(Cl)cc2OC=C(Cl)N1CCCCN1CC=C(c2ccccn2)CC1
2. CC1=COc2ccc(C)cc2C(=O)N1CCCCN1CC=C(c2ccccn2)CC1
3. O=C1c2ccccc2OC=C(Cl)N1CCCCN1CCN(c2ccccn2)CC1
4. O=C1c2ccccc2OC=C(Cl)N1CCCCN1CCC(c2ncccn2)CC1
5. O=C1c2ccc(Cl)cc2OC=C(Cl)N1CCCCN1CCC(c2ncccn2)CC1

Output:
1. 221
2. 77
3. 67
4. 310
5. 1153

For each of the items listed, what is its D2/5-HT1A?
1. Cc1ccc2c(c1)C(=O)N(CCCCN1CCN(c3ncccn3)CC1)C(Cl)=CO2
2. CC1=COc2ccccc2C(=O)N1CCCCN1CC=C(c2ncccn2)CC1
3. O=C1c2ccccc2OC=C(Cl)N1CCCCN1CCN(c2ncnc3ccccc23)CC1
4. CC1=COc2ccc(F)cc2C(=O)N1CCCCN1CCN(c2cccc(Cl)n2)CC1

Output:
[460, 89, 366, 156]

* * *

MEASURED ON: dopamine D2 receptor (Rattus norvegicus, UniProt P61169)
Construct: the corpus striatums excised from male Wistar rats were homogenized
Sequence (P61169 whole entry): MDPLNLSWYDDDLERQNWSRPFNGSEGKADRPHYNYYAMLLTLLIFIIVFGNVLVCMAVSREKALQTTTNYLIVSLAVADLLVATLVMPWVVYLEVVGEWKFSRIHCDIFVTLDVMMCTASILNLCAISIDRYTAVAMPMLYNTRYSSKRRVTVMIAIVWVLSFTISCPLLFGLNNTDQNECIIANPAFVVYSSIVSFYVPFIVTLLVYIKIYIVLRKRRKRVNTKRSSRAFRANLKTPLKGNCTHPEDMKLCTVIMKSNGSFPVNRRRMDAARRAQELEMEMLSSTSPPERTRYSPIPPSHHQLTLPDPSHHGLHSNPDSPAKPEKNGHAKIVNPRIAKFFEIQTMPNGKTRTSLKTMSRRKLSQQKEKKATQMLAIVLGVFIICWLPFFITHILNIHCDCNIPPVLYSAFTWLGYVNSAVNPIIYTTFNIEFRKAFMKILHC
EXPERIMENTAL DETAILS: Affinity with dopamine D2 receptor, [3H]Raclopride binding
TEST CONDITIONS: 1.0 nM [3H]Raclopride, rat corpus striatum preparation, 25° C., 60 minutes
OUTCOME MEASURE: IC50
Write the numeric value and follow it with the unit.

Worked examples follow.
>>> df
                               entry_smiles  outcome_measure  reported
0  CC1=COc2ccc(F)cc2C(=O)N1CCCCN1CC=C(c2ncccn2)CC1             IC50   1.25 µM
1  O=C1c2ccc(Cl)cc2OC=C(Cl)N1CCCCN1CCC(c2ncccn2)CC1             IC50   1.28 µM
2  O=C1c2ccc(Cl)cc2OC=C(Cl)N1CCCCN1CC=C(c2ncccn2)CC1             IC50  0.341 µM

The record that follows has no IC50 shown yet.
Sure, the documented IC50 for O=C1c2ccccc2OC=C(Cl)N1CCCCN1CCN(c2ncnc3ccccc23)CC1 is 1.39 µM
